Below: a set of entries, each annotated with reported pKd.
Target: GDP-bound KRAS wild-type protein (Homo sapiens, UniProt P01116)
Sequence (P01116 1-188 isoform P01116-2): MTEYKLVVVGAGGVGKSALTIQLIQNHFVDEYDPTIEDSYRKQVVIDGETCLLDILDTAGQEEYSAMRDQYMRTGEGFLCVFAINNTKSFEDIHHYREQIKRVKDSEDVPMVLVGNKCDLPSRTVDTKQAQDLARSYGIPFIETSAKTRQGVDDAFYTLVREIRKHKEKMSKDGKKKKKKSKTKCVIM
Assay: Binding to KRAS by surface plasmon resonance (SPR), dissociation constant KD
Settings: 1:1 binding model
pKd: −log10 of the molar value.
QUANTITY KIND: pKd

{"columns": ["SMILES RECORD", "QUANTITY KIND", "RECORDED RESULT"],
 "data": [
  ["CCC(CC)[C@H]1C(=O)N(C)[C@H](C(=O)N(C)C)CC(=O)N(C)[C@@H](COC)C(=O)N[C@@H]([C@@H](C)CC)C(=O)N(C2CC2)CC(=O)N(C)[C@H]2C/C=C\\CCN(C2=O)[C@@H](CC2CCC(F)(F)CC2)C(=O)N(C)CC(=O)N[C@@H](CCc2ccc(Cl)c(Cl)c2)C(=O)N2C[C@H](OC(C)C)C[C@H]2C(=O)NC2(CC(C)(C)C2)C(=O)N1C", "pKd", 8.42],
  ["CCC[C@H]1C(=O)N[C@@H]([C@@H](C)CC)C(=O)N(C2CC2)CC(=O)N(C)[C@H]2C/C=C\\CCN(C2=O)[C@@H](Cc2ccc(C)cc2)C(=O)N(C)CC(=O)N[C@@H](CCc2ccc(C(F)(F)F)c(CC)c2)C(=O)N2C[C@H](OCC)C[C@H]2C(=O)NC2(CC(C)(C)C2)C(=O)N(C)[C@@H](C2CCCC2)C(=O)N(C)[C@H](C(=O)N(C)C)CC(=O)N1C", "pKd", 9.24],
  ["CCC(CC)[C@H]1C(=O)N(C)[C@H](C(=O)N(C)C)CC(=O)N(C)[C@@H](COC)C(=O)N[C@@H]([C@@H](C)CC)C(=O)N(C2CC2)CC(=O)N(C)[C@H]2C/C=C\\CCN(C2=O)[C@@H](Cc2ccc(C)cc2)C(=O)N(C)CC(=O)N[C@@H](CCc2ccc(Cl)c(Cl)c2)C(=O)N2C[C@H](OC(C)C)C[C@H]2C(=O)NC2(CC(C)(C)C2)C(=O)N1C", "pKd", 8.59],
  ["CCCC[C@H]1C(=O)N[C@@H]([C@@H](C)CC)C(=O)N(C)CC(=O)N(C)[C@H]2C/C=C\\CCN(C2=O)[C@@H](Cc2ccc(C(F)(F)F)cc2)C(=O)N(C)CC(=O)N[C@@H](CCc2ccc(C(F)(F)F)cc2Cl)C(=O)N2C[C@H](F)C[C@H]2C(=O)NC2(CC(C)(C)C2)C(=O)N(C)[C@@H](C2CCC2)C(=O)N(C)[C@H](C(=O)N(C)C)CC(=O)N1C", "pKd", 8.96],
  ["CCO[C@@H]1C[C@H]2C(=O)NC3(CC(C)(C)C3)C(=O)N(C)[C@@H](C3CCCC3)C(=O)N(C)[C@H](C(=O)N(C)C)CC(=O)N(C)[C@@H]([C@H](C)OC)C(=O)N[C@@H]([C@@H](C)CC)C(=O)N3CCC[C@H]3C(=O)N(C)[C@H]3C/C=C\\CCN(C3=O)[C@@H](Cc3ccc(C)cc3)C(=O)N(C)CC(=O)N[C@@H](CCc3ccc(C(F)(F)F)c(OC)c3)C(=O)N2C1", "pKd", 8.85],
  ["CCO[C@@H]1C[C@H]2C(=O)NC3(CC(C)(C)C3)C(=O)N(C)[C@@H](C3CCCC3)C(=O)N(C)[C@H](C(=O)N(C)C)CC(=O)N(C)[C@@H]([C@H](C)OC)C(=O)N[C@@H]([C@@H](C)CC)C(=O)N(C3CC3)CC(=O)N(C)[C@H]3C/C=C\\CCN(C3=O)[C@@H](Cc3ccc(C)cc3)C(=O)N(C)CC(=O)N[C@@H](CCc3ccc(C(F)(F)F)c(Cl)c3)C(=O)N2C1", "pKd", 9.39],
  ["CCO[C@@H]1C[C@H]2C(=O)NC3(CC(C)(C)C3)C(=O)N(C)[C@@H](C3CCCC3)C(=O)N(C)[C@H](C(=O)N(C)C)CC(=O)N(C)[C@@H](COC)C(=O)N[C@@H]([C@@H](C)CC)C(=O)N(C)CC(=O)N(C)[C@H]3C/C=C\\CCN(C3=O)[C@@H](Cc3ccc(C)cc3)C(=O)N(C)CC(=O)N[C@@H](CCc3ccc(C(F)(F)F)c(Cl)c3)C(=O)N2C1", "pKd", 10.10],
  ["CCC[C@H]1C(=O)N[C@@H]([C@@H](C)CC)C(=O)N(C2CC2)CC(=O)N(C)[C@H]2C/C=C\\CCN(C2=O)[C@@H](Cc2ccc(C)cc2)C(=O)N(C)CC(=O)N[C@@H](CCc2ccc(Cl)c(Cl)c2)C(=O)N2C[C@H](OC3CCC3)C[C@H]2C(=O)NC2(CC(C)(C)C2)C(=O)N(C)[C@@H](C2CCCC2)C(=O)N(C)[C@H](C(=O)N(C)C)CC(=O)N1C", "pKd", 9.10],
  ["CCO[C@@H]1C[C@H]2C(=O)NC3(CC(C)(C)C3)C(=O)N(C)[C@@H](C3CCCC3)C(=O)N(C)[C@H](C(=O)N(C)C)CC(=O)N(C)[C@@H]([C@@H](C)OC)C(=O)N[C@@H]([C@@H](C)CC)C(=O)N(C3CC3)CC(=O)N(C)[C@H]3C/C=C\\CCN(C3=O)[C@@H](Cc3ccc(C)cc3)C(=O)N(C)CC(=O)N[C@@H](CCc3cc(F)c(C(F)(F)F)c(F)c3)C(=O)N2C1", "pKd", 9.48],
  ["CCC(CC)[C@H]1C(=O)N(C)[C@H](C(=O)N(C)C)CC(=O)N(C)[C@@H](CC2CC2)C(=O)N[C@@H]([C@@H](C)CC)C(=O)N(C)CC(=O)N(C)[C@H]2C/C=C\\CCN(C2=O)[C@@H](CC2CCC(F)(F)CC2)C(=O)N(C)CC(=O)N[C@@H](CCc2cc(F)c(C(F)(F)F)c(F)c2)C(=O)N2C[C@@H](C)C[C@H]2C(=O)NC2(CC(C)(C)C2)C(=O)N1C", "pKd", 8.77],
  ["CCO[C@@H]1C[C@H]2C(=O)NC3(CCC3)C(=O)N(C)[C@@H](C3CCCC3)C(=O)N(C)[C@H](C(=O)N(C)CC)CC(=O)N(C)[C@@H](CC3CCC3)C(=O)N[C@@H]([C@@H](C)CC)C(=O)N(C)CC(=O)N(C)[C@H]3C/C=C\\CCN(C3=O)[C@@H](Cc3ccc(C(F)(F)F)cc3)C(=O)N(C)CC(=O)N[C@@H](CCc3ccc(Cl)c(Cl)c3)C(=O)N2C1", "pKd", 9.36]
]}

Just for reference, patent EP4603105A1 is where these values come from.
